# credit: ChEMBL document CHEMBL5346927

Please provide measured inhibition for the entries that follow.
biological target: Lysine-specific demethylase 5B (Homo sapiens, UniProt Q9UGL1); test: Inhibition of KDM5B (unknown origin) at 10 uM relative to control
Sequence (Q9UGL1 whole entry): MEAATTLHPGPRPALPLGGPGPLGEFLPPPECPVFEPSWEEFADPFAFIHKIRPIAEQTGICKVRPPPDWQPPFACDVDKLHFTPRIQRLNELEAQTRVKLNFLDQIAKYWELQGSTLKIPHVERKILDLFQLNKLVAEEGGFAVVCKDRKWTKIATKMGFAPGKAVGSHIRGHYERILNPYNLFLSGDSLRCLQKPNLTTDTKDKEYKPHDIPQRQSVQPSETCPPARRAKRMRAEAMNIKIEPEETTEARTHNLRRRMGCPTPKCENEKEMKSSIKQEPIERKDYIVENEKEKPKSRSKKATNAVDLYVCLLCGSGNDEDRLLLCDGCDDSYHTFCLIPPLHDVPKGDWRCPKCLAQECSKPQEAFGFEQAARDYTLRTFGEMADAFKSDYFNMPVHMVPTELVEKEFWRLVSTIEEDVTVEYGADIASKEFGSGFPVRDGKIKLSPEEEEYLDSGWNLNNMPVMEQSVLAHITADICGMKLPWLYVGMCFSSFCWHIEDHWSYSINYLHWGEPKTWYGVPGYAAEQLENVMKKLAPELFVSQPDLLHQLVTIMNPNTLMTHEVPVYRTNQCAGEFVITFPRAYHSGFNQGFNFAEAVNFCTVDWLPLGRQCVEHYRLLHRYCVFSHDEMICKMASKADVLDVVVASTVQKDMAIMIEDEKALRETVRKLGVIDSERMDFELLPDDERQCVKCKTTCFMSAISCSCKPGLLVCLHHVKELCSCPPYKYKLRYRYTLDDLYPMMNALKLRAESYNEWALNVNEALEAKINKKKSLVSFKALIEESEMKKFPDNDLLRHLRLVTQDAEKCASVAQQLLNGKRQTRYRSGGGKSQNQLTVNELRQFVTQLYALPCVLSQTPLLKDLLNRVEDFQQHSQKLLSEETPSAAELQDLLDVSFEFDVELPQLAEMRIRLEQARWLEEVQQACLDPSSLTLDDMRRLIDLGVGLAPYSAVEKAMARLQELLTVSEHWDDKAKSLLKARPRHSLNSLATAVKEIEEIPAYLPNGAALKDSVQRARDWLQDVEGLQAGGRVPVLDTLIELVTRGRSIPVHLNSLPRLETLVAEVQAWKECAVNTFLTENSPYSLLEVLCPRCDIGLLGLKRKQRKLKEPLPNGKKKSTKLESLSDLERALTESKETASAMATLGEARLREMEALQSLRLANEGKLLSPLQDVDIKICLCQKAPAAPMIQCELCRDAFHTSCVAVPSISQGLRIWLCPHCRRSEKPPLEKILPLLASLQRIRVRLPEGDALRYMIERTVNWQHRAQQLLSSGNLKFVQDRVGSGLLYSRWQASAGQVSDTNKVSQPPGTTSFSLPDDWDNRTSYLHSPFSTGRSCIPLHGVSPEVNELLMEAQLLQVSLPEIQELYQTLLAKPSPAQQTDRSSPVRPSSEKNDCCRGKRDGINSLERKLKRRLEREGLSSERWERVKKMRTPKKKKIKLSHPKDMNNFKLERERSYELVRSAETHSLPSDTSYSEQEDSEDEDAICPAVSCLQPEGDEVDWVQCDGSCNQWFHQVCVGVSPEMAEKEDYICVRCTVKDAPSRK
The reply should be a number in %, with the unit left off.

Inquiry: What does the record list as inhibition for Cc1ccc(-n2ncc3c(C(=O)NCCN4CCN(C)CC4)cc(-c4ccc5ccccc5c4)nc32)cc1 ?
Reply text: 79

Inquiry: // repeat for Cc1cccc(-c2cc(C(=O)NCCN3CCN(C)CC3)c3cnn(-c4ccccc4)c3n2)c1 and report
Reply text: 67

Inquiry: // repeat for Cc1ccc(-n2ncc3c(C(=O)NCc4cn(-c5ccc(C)c(C)c5)nn4)cc(-c4ccc5ccccc5c4)nc32)cc1 and report
Reply text: 51

Inquiry: // repeat for Cc1ccc(-n2ncc3c(C(=O)Nc4cccnc4)cc(-c4ccc5ccccc5c4)nc32)cc1 and report
Reply text: -3

Inquiry: // repeat for CN1CCN(CCNC(=O)c2cc(-c3ccc(Cl)cc3)nc3c2cnn3-c2ccccc2)CC1 and report
Reply text: 43

Inquiry: // repeat for Cc1ccc(-n2ncc3c(C(=O)NCc4cn(-c5ccc(I)cc5)nn4)cc(-c4ccc5ccccc5c4)nc32)cc1 and report
Reply text: 58

Inquiry: // repeat for CN1CCN(CCNC(=O)c2cc(-c3ccccc3)nc3c2cnn3-c2cccc(Cl)c2)CC1 and report
Reply text: 6
